Each recorded value in this set is attributed to the supplement of paper PMC9112550.

The entries below are paired with their reported shrunken log2 fold change.
Tested on: Escherichia coli TOP10
Experiment: shrunken log2 fold change of peptide-encoding DNA abundance (4.5 h post-induction vs induction); higher = less antimicrobial activity (less host growth inhibition)
Details: time post-induction: 4.5 h; library: site-saturation at positions 5, 18, 19, 20
A bare number is all that is needed in reply.

# count of solved cases: 5
1. RRIRTRPPRLPRPRPRPGSTPRP ... 0.857
2. RRIRDRPPRLPRPRPRPAPIPRP ... 0.32
3. RRIRRRPPRLPRPRPRPETSPRP ... 0.4
4. RRIRGRPPRLPRPRPRPYDEPRP ... 0.0538
5. RRIRHRPPRLPRPRPRPWPDPRP ... -0.0062

API: value(readout=shrunken log2 fold change, system=Escherichia coli TOP10) for record `RRIRCRPPRLPRPRPRPWIEPRP`
-0.123

API: value(readout=shrunken log2 fold change, system=Escherichia coli TOP10) for record `RRIRMRPPRLPRPRPRPNGFPRP`;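 note: peptides expressed intracellularly from a pBAD plasmid library in pooled LB shake-flask culture, induced with 0.3% L-arabinose, DNA abundance read by NGS, three biological replicates, DESeq2 with apeglm shrinkage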
0.207
